experimental system: C5aR (Homo sapiens (Human), UniProt P21730)
Sequence (P21730 whole entry): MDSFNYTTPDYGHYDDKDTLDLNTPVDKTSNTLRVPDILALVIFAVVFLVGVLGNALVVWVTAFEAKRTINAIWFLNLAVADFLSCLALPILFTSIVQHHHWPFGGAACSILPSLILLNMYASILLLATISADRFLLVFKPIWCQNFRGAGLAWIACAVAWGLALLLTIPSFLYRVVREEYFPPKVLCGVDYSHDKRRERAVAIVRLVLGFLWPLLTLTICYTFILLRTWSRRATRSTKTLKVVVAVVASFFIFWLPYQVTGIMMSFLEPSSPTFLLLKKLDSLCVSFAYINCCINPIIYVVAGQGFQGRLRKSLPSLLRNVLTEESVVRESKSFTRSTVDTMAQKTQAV
test method notes: Chemotaxis assay using U937 cells (C5aR mediated migration)
condition parameters: read-out: Mig IC50
pIC50: −log10 of the molar value.
Measured pIC50 of individual entries

[
  {
    "line notation": "Cc1cccc(OCC(C)C)c1-n1nc2c(c1-c1cc(F)c(NC(N)=O)cc1F)CN(c1ncc(C(C)C)cn1)CC2",
    "pIC50": "≥ 8.30"
  },
  {
    "line notation": "Cc1cccc(OCC(C)C)c1-n1nc2c(c1-c1ccc(NC(N)=O)cc1)CN(Cc1cc(F)ccc1Cl)CC2",
    "pIC50": "≥ 8.30"
  },
  {
    "line notation": "Cc1ccc(C(C)(C)C)cc1N1CCc2nn(-c3c(C)cccc3CC(C)C)c(-c3ccc(N(C)C(N)=O)cc3)c2C1",
    "pIC50": "< 6.30"
  }
]

Item under review: Cc1cccc(OCC(C)C)c1-n1nc2c(c1-c1ccc(NC(N)=O)c(F)c1)CN(c1ncc(Cl)cc1Cl)CC2 . Reported pIC50?
≥ 8.30

# lookup: pIC50 of COc1cccc(F)c1-n1nc2c(c1-c1ccc(NC(N)=O)cc1)CN(c1cc(C(C)(C)C)ccc1C)CC2
6.30 to 7.30

# pIC50 lookup, item Cc1cccc(OCC(C)C)c1-n1nc2c(c1-c1ccc(NC(=O)N(C)C)cc1)CN(c1ncc(C(F)(F)F)cc1F)CC2
< 6.30
